Hey, just so you know, these numbers are from ChEMBL document CHEMBL3588770.

Biological target: D(1A) dopamine receptor (Homo sapiens)
Experiment: Displacement of [3H]SCH23390 from human D1 receptor expressed in CHO cells at 1 uM by scintillation counting analysis
Format: cell-based
Experimental Endpoint: inhibition (%)

COc1ccccc1N1CCN(CCCCN2C(=O)NC3(CCc4ccccc43)C2=O)CC1 (centres undefined)	68
O=C1NC2(CCCc3ccccc32)C(=O)N1CCCCN1CCN(c2cccc(Cl)c2)CC1 (centres undefined)	95
COc1ccccc1N1CCN(CCCCN2C(=O)NC3(CCCc4ccccc43)C2=O)CC1 (centres undefined)	87
O=C1NC2(CCc3ccccc32)C(=O)N1CCCCN1CCN(c2cccc(Cl)c2)CC1 (centres undefined)	91

###

5-hydroxytryptamine receptor 7 (Rattus norvegicus, UniProt P32305): recorded Ki for assorted compounds
Sequence (P32305 whole entry): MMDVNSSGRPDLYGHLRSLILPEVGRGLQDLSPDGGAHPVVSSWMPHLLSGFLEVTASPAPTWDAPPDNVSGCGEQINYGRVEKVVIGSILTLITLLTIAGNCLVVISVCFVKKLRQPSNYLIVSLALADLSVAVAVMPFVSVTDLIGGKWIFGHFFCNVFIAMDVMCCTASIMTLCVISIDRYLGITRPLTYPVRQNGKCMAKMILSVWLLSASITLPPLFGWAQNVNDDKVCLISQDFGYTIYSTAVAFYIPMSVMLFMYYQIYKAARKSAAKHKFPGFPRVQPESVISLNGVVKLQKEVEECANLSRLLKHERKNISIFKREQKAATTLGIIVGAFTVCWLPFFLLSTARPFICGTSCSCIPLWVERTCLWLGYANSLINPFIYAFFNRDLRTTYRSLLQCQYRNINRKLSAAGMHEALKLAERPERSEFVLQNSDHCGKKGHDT
Experimental Endpoint: Ki (nM)

I: O=C1NC2(CCC(c3ccccc3)CC2)C(=O)N1CCCCN1CCN(c2cccc(C(F)(F)F)c2)CC1 (centres undefined)
II: COc1ccccc1N1CCN(CCCCN2C(=O)NC3(CCc4ccccc43)C2=O)CC1 (centres undefined)
Enquiry: Which shows the larger Ki value: I or II ? Your choice should be expressed through its label.
Return: I
(I: 379 nM, II: 71 nM)

1: O=C1NC2(CCC(c3ccccc3)CC2)C(=O)N1CCCCN1CCN(c2ccccc2)CC1 (centres undefined)
2: COc1ccccc1N1CCN(CCCCN2C(=O)NC3(CCCCC3c3ccccc3)C2=O)CC1 (centres undefined)
Enquiry: // compare: 1 vs 2 , metric Ki, want the smaller Your choice should be expressed through its label.
Return: 2
(2: 63 nM, 1: 515 nM)

###

Biological target: 5-hydroxytryptamine receptor 1A (Rattus norvegicus, UniProt P19327)
Sequence (P19327 whole entry): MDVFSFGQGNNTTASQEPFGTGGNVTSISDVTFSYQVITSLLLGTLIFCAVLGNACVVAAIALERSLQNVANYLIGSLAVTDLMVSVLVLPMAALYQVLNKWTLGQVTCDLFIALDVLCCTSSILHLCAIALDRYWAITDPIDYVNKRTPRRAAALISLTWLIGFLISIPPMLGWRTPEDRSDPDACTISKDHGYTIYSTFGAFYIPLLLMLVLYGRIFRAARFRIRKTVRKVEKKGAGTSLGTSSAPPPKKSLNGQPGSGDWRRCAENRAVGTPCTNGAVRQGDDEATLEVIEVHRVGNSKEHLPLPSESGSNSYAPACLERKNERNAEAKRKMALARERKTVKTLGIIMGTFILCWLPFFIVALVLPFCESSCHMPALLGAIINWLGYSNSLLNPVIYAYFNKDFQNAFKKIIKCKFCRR
Experimental Endpoint: Ki (µM)

O=C1NC2(CCc3ccccc32)C(=O)N1CCCCN1CCN(c2cccc(Cl)c2)CC1 (stereo not drawn)	0.012

1: O=C1NC2(CCCc3ccccc32)C(=O)N1CCCCN1CCN(c2cccc(C(F)(F)F)c2)CC1 (stereo not drawn)
2: O=C1NC2(CCC(c3ccccc3)CC2)C(=O)N1CCCCN1CCN(c2cccc(Cl)c2)CC1 (stereo not drawn)
3: O=C1NC2(CCCc3ccccc32)C(=O)N1CCCCN1CCN(c2ccccc2)CC1 (stereo not drawn)
4: O=C1NC2(CCCCC2c2ccccc2)C(=O)N1CCCCN1CCN(c2cccc(Cl)c2)CC1 (stereo not drawn)
Enquiry: Order the entries by their reported Ki, beginning at the minimum. Form entry: labels listed in requested order.
Return: 1, 3, 2, 4
(1: 0.0053 µM, 3: 0.013 µM, 2: 0.03 µM, 4: 0.113 µM)

a: O=C1NC2(CCc3ccccc32)C(=O)N1CCCCN1CCN(c2cccc(C(F)(F)F)c2)CC1 (stereo not drawn)
b: COc1ccccc1N1CCN(CCCCN2C(=O)NC3(CCCCC3c3ccccc3)C2=O)CC1 (stereo not drawn)
c: COc1ccccc1N1CCN(CCCCN2C(=O)NC3(CCCc4ccccc43)C2=O)CC1 (stereo not drawn)
Enquiry: Order the entries by their reported Ki, beginning at the minimum. Form entry: labels listed in requested order.
Return: c, a, b
